measured.target: UniProtKB Q04609
test.protocol: PSMA inhibitory activities, fluorescence-based assay (Example 3)
Assay type: biochemical
Description: PSMA inhibitory activities were determined using a fluorescence-based assay (Banerjee, Pullambhatla, Byun, et al., 2011). Enzyme inhibitory constants (Ki values) were generated using the Cheng-Prusoff conversion (Cheng and Prusoff, 1973). Sub-lines of the androgen independent PC-3 human prostate cancer xenograft were used (Banerjee, Pullambhatla, Byun, et al., 2011). […]
Where a SMILES comes first, the peptide text is derived from it. [ ]: non-standard residue; d: D form. The star is where a group is joined. ξ: configuration not given here. X1 = O=C(O)CC[C@H](NC(=O)N[C@@H](CCCCNC(=O)CCCCCCC(=O)*)C(=O)O)C(=O)O; DOTA = O=C(O)CN1CCN(CC(=O)O)CCN(CC(=O)*)CCN(CC(=O)O)CC1; ξF = NC(Cc1ccccc1)C(=O)O
recorded.metric: Ki (nM)
Answers are plain numbers, in nM.

Reference set, count: 2
O=C([O-])CN1CCN(CC(=O)[O-])CCN(CC(=O)NC(Cc2ccccc2)C(=O)NC(Cc2ccccc2)C(=O)N[C@@H](CCCCNC(=O)CCCCCCC(=O)NCCCC[C@H](NC(=O)N[C@@H](CCC(=O)O)C(=O)O)C(=O)O)C(=O)O)CCN(CC(=O)[O-])CC1.[Y+3] (stereo partly drawn) [^89Y-4]    0.36
O=C([O-])CN1CCN(CC(=O)[O-])CCN(CC(=O)NC(Cc2ccccc2)C(=O)NC(Cc2ccccc2)C(=O)NC(Cc2ccccc2)C(=O)N[C@@H](CCCCNC(=O)CCCCCCC(=O)NCCCC[C@H](NC(=O)N[C@@H](CCC(=O)O)C(=O)O)C(=O)O)C(=O)O)CCN(CC(=O)[O-])CC1.[Y+3] (stereo partly drawn) [^89Y-5] ({DOTA}-[ξF][ξF][ξF]K(X1)-OH)    0.1

Let us move to another entry and its Ki.
In: I'd like to know its Ki. The molecule in question is O=C([O-])CN1CCN(CC(=O)O)CCN(CC(=O)[O-])CC(Cc2ccc(NC(=S)NCCCCNC(=O)CCCCCCC(=O)NCCCC[C@H](NC(=O)N[C@@H](CCC(=O)O)C(=O)O)C(=O)O)cc2)N(CC(=O)[O-])CC1.[Y+3] (stereo partly drawn) [^89Y-6]
Out: 2.99

* * *

measured.target: PSMA (Homo sapiens, UniProt Q04609)
Sequence (Q04609 whole entry): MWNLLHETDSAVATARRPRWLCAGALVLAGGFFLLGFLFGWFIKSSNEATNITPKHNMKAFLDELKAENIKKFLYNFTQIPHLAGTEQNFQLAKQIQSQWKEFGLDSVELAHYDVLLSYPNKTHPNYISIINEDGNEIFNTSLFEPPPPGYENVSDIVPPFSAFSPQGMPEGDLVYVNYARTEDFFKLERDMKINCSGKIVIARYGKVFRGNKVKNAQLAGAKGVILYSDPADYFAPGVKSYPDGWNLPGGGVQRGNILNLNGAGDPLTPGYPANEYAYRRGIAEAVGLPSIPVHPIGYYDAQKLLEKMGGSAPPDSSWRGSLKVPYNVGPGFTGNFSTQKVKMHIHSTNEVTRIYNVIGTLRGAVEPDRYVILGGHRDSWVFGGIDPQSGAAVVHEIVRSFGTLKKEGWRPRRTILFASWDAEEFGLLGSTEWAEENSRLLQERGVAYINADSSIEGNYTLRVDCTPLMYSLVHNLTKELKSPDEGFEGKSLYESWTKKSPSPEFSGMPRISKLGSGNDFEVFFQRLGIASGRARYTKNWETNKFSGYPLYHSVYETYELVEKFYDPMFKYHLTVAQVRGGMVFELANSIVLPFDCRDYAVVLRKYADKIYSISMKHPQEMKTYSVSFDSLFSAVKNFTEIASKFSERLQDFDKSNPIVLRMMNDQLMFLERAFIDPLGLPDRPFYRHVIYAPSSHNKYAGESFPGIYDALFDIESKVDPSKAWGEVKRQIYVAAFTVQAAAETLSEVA
test.protocol: PSMA inhibitory activities, fluorescence-based assay (Example 3)
Assay type: biochemical
recorded.metric: Ki (nM)
Answers are plain numbers, in nM.

O=C(O)CC[C@H](NC(=O)N[C@@H](CCCCNC(=O)CCCCCCC(=O)NCCCCNC(=S)Nc1ccc(CC2CN(CC(=O)O)CCN(CC(=O)O)CCN(CC(=O)O)CCN2CC(=O)O)cc1)C(=O)O)C(=O)O (some centres unmarked) [Compound 6]    1.8

// below: Ki requested for another compound
In: I am curious: what Ki value has been reported for O=C(O)CC[C@H](NC(=O)N[C@@H](CCCCNC(=O)CCCCCCC(=O)NCCCC[C@H](NC(=O)C(Cc1ccccc1)NC(=O)C(Cc1ccccc1)NC(=O)C(Cc1ccccc1)NC(=O)CN1CCN(CC(=O)O)CCN(CC(=O)O)CCN(CC(=O)O)CC1)C(=O)O)C(=O)O)C(=O)O (some centres unmarked) [Compound 5] ?
Out: 3.12
